Data provenance: ChEMBL document CHEMBL1150745

I'd appreciate it if you could supply EC50 values for the items below.
tested on: P388; test: Cytotoxicity against mouse P388 cells; format: functional; conditions: read-out: ED50 (the source's name)
Entry format: amount then unit.

molecule=C/C1=C/[C@H](O)C/C(C)=C/[C@H](O)C(=O)/C(C)=C/[C@H]2[C@@H](CC1)C2(C)C recorded_result="1.4 µg/mL"
molecule="C/C1=C\\[C@H](O)C(=O)/C(C)=C/[C@@H]2[C@@H](CCC(C)(O)/C=C/C1)C2(C)C (some centres undefined)" recorded_result="1.4 µg/mL"
molecule=C/C1=C/C(=O)C/C(C)=C/[C@H](O)C(=O)/C(C)=C/[C@H]2[C@@H](CC1)C2(C)C recorded_result="2.8 µg/mL"

Proceeding to the next molecule to report its EC50.
Can you look up the measured EC50 of C/C1=C/[C@H](O)C/C(C)=C/[C@H](O)C(=O)/C(C)=C/[C@H]2[C@@H](CC1)[C@]2(C)CO for me?
0.8 µg/mL
